- Procedure Summary: Renal clearance in healthy human at 1500 […], po administered as single dose
- Assay type: ADME, organism-based, Kidney
- Design: route oral
- Assay Context: in vivo, read-out: CL_renal (converted)
Measured Quantity: CL renal (L/h/kg)
Unit L/h/kg implied. Number only.

If you can, please state the reported CL renal value of COc1c(N2C[C@@H](C)C[C@H](N)C2)ccc2c(=O)c(C(=O)O)cn(C3CC3)c12 [NEMONOXACIN] .
0.069

###

- Procedure Summary: Cmax in healthy human at 25 mg, po administered as single dose
- Assay Context: in vivo
Measured Quantity: Cmax (ng/mL)
Unit ng/mL implied. Number only.

If you can, please state the reported Cmax value of COc1c(N2C[C@@H](C)C[C@H](N)C2)ccc2c(=O)c(C(=O)O)cn(C3CC3)c12 .
150

###

- Procedure Summary: Terminal phase elimination half-life in healthy human at 50 […], po administered single dose
- Type: ADME, organism-based
- Set-up: route oral
- Assay Context: in vivo
Measured Quantity: half-life (h)
Unit h implied. Number only.

If you can, please state the reported half-life value of COc1c(N2C[C@@H](C)C[C@H](N)C2)ccc2c(=O)c(C(=O)O)cn(C3CC3)c12 .
8.49

###

- Procedure Summary: Clearance in healthy human assessed as recovery of unchanged drug in urine at 1500 […], po administered as single dose
- Format: ADME, organism-based
- Parameters: route oral
- Assay Context: read-out: Recovered in urine
Measured Quantity: dose excreted (%)
Unit % implied. Number only.

If you can, please state the reported dose excreted value of COc1c(N2C[C@@H](C)C[C@H](N)C2)ccc2c(=O)c(C(=O)O)cn(C3CC3)c12 [NEMONOXACIN] .
37.6

###

- Procedure Summary: Terminal phase elimination half-life in healthy human at 1500 mg, po administered single dose
- Assay Context: in vivo
Measured Quantity: half-life
Please provide the amount together with its unit, number first.

If you can, please state the reported half-life value of COc1c(N2C[C@@H](C)C[C@H](N)C2)ccc2c(=O)c(C(=O)O)cn(C3CC3)c12 .
13 h

###

- Procedure Summary: Tmax in healthy human at 1000 mg/kg, po administered as single dose
- Format: ADME, organism-based
- Set-up: route oral
- Assay Context: in vivo
Measured Quantity: Tmax (h)
Unit h implied. Number only.

If you can, please state the reported Tmax value of COc1c(N2C[C@@H](C)C[C@H](N)C2)ccc2c(=O)c(C(=O)O)cn(C3CC3)c12 .
1.67

###

- Procedure Summary: Terminal phase elimination half-life in healthy human at 250 […], po administered single dose
- Type: ADME, organism-based
- Set-up: route oral
- Assay Context: in vivo
Measured Quantity: half-life (h)
Unit h implied. Number only.

If you can, please state the reported half-life value of COc1c(N2C[C@@H](C)C[C@H](N)C2)ccc2c(=O)c(C(=O)O)cn(C3CC3)c12 [NEMONOXACIN] .
10.9

###

- Procedure Summary: Terminal phase elimination half-life in healthy human at 125 […], po administered single dose
- Format: ADME, organism-based
- Set-up: route oral
- Assay Context: in vivo
Measured Quantity: half-life (h)
Unit h implied. Number only.

If you can, please state the reported half-life value of COc1c(N2C[C@@H](C)C[C@H](N)C2)ccc2c(=O)c(C(=O)O)cn(C3CC3)c12 .
11.1

###

- Procedure Summary: Cmax in healthy human at 125 mg, po administered as single dose
- Assay Context: in vivo
Measured Quantity: Cmax (ng/mL)
Unit ng/mL implied. Number only.

If you can, please state the reported Cmax value of COc1c(N2C[C@@H](C)C[C@H](N)C2)ccc2c(=O)c(C(=O)O)cn(C3CC3)c12 [NEMONOXACIN] .
1220

###

- Procedure Summary: Clearance in healthy human assessed as recovery of unchanged drug in urine at 1000 […], po administered as single dose
- Format: ADME, organism-based
- Set-up: route oral
- Assay Context: read-out: Recovered in urine
Measured Quantity: dose excreted (%)
Unit % implied. Number only.

If you can, please state the reported dose excreted value of COc1c(N2C[C@@H](C)C[C@H](N)C2)ccc2c(=O)c(C(=O)O)cn(C3CC3)c12 .
36.5

###

- Procedure Summary: Tmax in healthy human at 500 mg, po administered as single dose
- Assay Context: in vivo
Measured Quantity: Tmax (h)
Unit h implied. Number only.

If you can, please state the reported Tmax value of COc1c(N2C[C@@H](C)C[C@H](N)C2)ccc2c(=O)c(C(=O)O)cn(C3CC3)c12 .
2

###

- Procedure Summary: Tmax in healthy human at 1500 […], po administered as single dose
- Type: ADME, organism-based
- Design: route oral
- Assay Context: in vivo
Measured Quantity: Tmax (h)
Unit h implied. Number only.

If you can, please state the reported Tmax value of COc1c(N2C[C@@H](C)C[C@H](N)C2)ccc2c(=O)c(C(=O)O)cn(C3CC3)c12 .
2.67

###

- Procedure Summary: Cmax in healthy human at 250 mg, po administered as single dose
- Assay Context: in vivo
Measured Quantity: Cmax (ng/mL)
Unit ng/mL implied. Number only.

If you can, please state the reported Cmax value of COc1c(N2C[C@@H](C)C[C@H](N)C2)ccc2c(=O)c(C(=O)O)cn(C3CC3)c12 [NEMONOXACIN] .
2400

###

- Procedure Summary: Clearance in healthy human assessed as recovery of unchanged drug in urine at 250 […], po administered as single dose
- Assay type: ADME, organism-based
- Parameters: route oral
- Assay Context: read-out: Recovered in urine
Measured Quantity: dose excreted (%)
Unit % implied. Number only.

If you can, please state the reported dose excreted value of COc1c(N2C[C@@H](C)C[C@H](N)C2)ccc2c(=O)c(C(=O)O)cn(C3CC3)c12 [NEMONOXACIN] .
44.9

###

- Procedure Summary: Clearance in healthy human assessed as recovery of unchanged drug in urine at 50 […], po administered as single dose
- Type: ADME, organism-based
- Set-up: route oral
- Assay Context: read-out: Recovered in urine
Measured Quantity: dose excreted (%)
Unit % implied. Number only.

If you can, please state the reported dose excreted value of COc1c(N2C[C@@H](C)C[C@H](N)C2)ccc2c(=O)c(C(=O)O)cn(C3CC3)c12 .
51.1

###

- Procedure Summary: Clearance in healthy human assessed as recovery of unchanged drug in urine at 25 […], po administered as single dose
- Type: ADME, organism-based
- Set-up: route oral
- Assay Context: read-out: Recovered in urine
Measured Quantity: dose excreted

If you can, please state the reported dose excreted value of COc1c(N2C[C@@H](C)C[C@H](N)C2)ccc2c(=O)c(C(=O)O)cn(C3CC3)c12 .
56.2%

###

- Procedure Summary: Terminal phase elimination half-life in healthy human at 25 […], po administered single dose
- Type: ADME, organism-based
- Set-up: route oral
- Assay Context: in vivo
Measured Quantity: half-life (h)
Unit h implied. Number only.

If you can, please state the reported half-life value of COc1c(N2C[C@@H](C)C[C@H](N)C2)ccc2c(=O)c(C(=O)O)cn(C3CC3)c12 .
9.71

###

- Procedure Summary: Tmax in healthy human at 250 mg, po administered as single dose
- Assay Context: in vivo
Measured Quantity: Tmax
Please provide the amount together with its unit, number first.

If you can, please state the reported Tmax value of COc1c(N2C[C@@H](C)C[C@H](N)C2)ccc2c(=O)c(C(=O)O)cn(C3CC3)c12 .
55.2 min

###

- Procedure Summary: Renal clearance in healthy human at 250 mg, po administered as single dose
- Assay Context: in vivo, read-out: CL_renal (converted)
Measured Quantity: CL renal (mL/min/kg)
Unit mL/min/kg implied. Number only.

If you can, please state the reported CL renal value of COc1c(N2C[C@@H](C)C[C@H](N)C2)ccc2c(=O)c(C(=O)O)cn(C3CC3)c12 .
1.83

###

- Procedure Summary: Renal clearance in healthy human at 500 mg, po administered as single dose
- Assay Context: in vivo, read-out: CL_renal (converted)
Measured Quantity: CL renal

If you can, please state the reported CL renal value of COc1c(N2C[C@@H](C)C[C@H](N)C2)ccc2c(=O)c(C(=O)O)cn(C3CC3)c12 .
1.13 mL/min/kg

###

- Procedure Summary: Terminal phase elimination half-life in healthy human at 500 […], po administered single dose
- Format: ADME, organism-based
- Set-up: route oral
- Assay Context: in vivo
Measured Quantity: half-life (h)
Unit h implied. Number only.

If you can, please state the reported half-life value of COc1c(N2C[C@@H](C)C[C@H](N)C2)ccc2c(=O)c(C(=O)O)cn(C3CC3)c12 .
14.8

###

- Procedure Summary: Renal clearance in healthy human at 25 mg, po administered as single dose
- Assay Context: in vivo, read-out: CL_renal (converted)
Measured Quantity: CL renal (L/h/kg)
Unit L/h/kg implied. Number only.

If you can, please state the reported CL renal value of COc1c(N2C[C@@H](C)C[C@H](N)C2)ccc2c(=O)c(C(=O)O)cn(C3CC3)c12 .
0.18
